test: growth modulation of vineyard yeast isolate – strain RM11-1a, OD600, basal, 24 h, primary screen (AID 1177);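 note: cultures grown under basal conditions with no added stressor; test concentration not given here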; details: S. cerevisiae RM11-1a growth, OD600, 24 h; higher = more signal, called active from +8 up or from −8 down

COMPOUND	z-score
CC(C)N1C(=O)c2ccccc2[C@@H](C(=O)NCCN2CCOCC2)[C@@H]1c1ccc(CO)cc1	0.985
O=C1NC(=O)C2C1C=CC(C(O)c1ccco1)N2Nc1ccc(Cl)cc1Cl (centres undefined)	-5.34
O=C(NCCN1CCOCC1)[C@@H]1c2ccccc2C(=O)N(C2Cc3ccccc3C2)[C@H]1c1ccc(CO)cc1	-1.44
CC(C)[Si](C#C[Si](C(C)C)(C(C)C)C(C)C)(O[C@H](c1ccccc1)c1cn(Cc2ccccc2)nn1)C(C)C	1.14

====

assay: probe aNOTCH3 binding on compound microarray – biochemical, small-molecule microarray, 635/667 nm fluorescence, primary screen (AID 1120); conditions: higher = more signal;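 note: probe is a biotin-tagged antibody raised against NOTCH3 rather than NOTCH3 protein; score merges spot fluorescence near 667 nm with spot signal to noise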

COMPOUND	composite z-score
CCCCCCCCCC(O)C1C=CC2C(=O)N(c3ccccc3)C(=O)C2N1Nc1cc(OC)c(OC)c(OC)c1 (stereo not given)	-0.0751
C=CC[C@]1(C(=O)N2CCOCC2)COC(c2ccc(OCCCO)cc2)=N1	0.298
NCCCCCNC(=O)[C@@H]1C[C@@H]2C(=O)N[C@@H](CCCCN)C(=O)N2[C@@H]1c1ccc(O)cc1	0.353
CCCCC[C@H]1OC[C@@]23C=C(Br)[C@@H](CC12)[C@@]1(CO1)C3=O (stereo not given in full)	-0.126
C=C(/C(=C/C[C@H](OC(=O)c1ccncc1)c1ccc(CO)o1)c1cnc2ccccc2c1)C(C)C	0.169

====

tested on: Lefty1; assay: Lefty1 protein binding to printed compounds – biochemical, small-molecule microarray, 635/667 nm fluorescence, primary screen (AID 1139); details: fluorescence 635/667, higher = more signal
Kind request: treat 0.5 as inclusive, so composite z-score at 0.5 or higher is T, anything lower is F.

MOLECULE	LABEL_CLASS
CCCCCN1CC=CC23O[C@@H]4/C=C\CCCOC(=O)C4[C@H]2C(=O)N(C(C)CO)[C@@H]3C1=O (stereo partly drawn)	F
CC(C)N1C(=O)C[C@@](C(=O)O)(c2ccc([N+](=O)[O-])cc2)[C@H]1c1ccc(CO)cc1	F
NC(=O)[C@@]1(Cc2ccccc2)COC(c2ccc(OCCCO)cc2)=N1	F
CCCC[C@@H](O)C1=C(COc2ccccc2)C[C@H]2C(=O)N(Cc3ccccc3)C(=O)[C@H]2[C@H]1CO	T
CCCC=C(CCC)[C@@H](NS(=O)(=O)CC12CCC(CC1=O)C2(C)C)c1ccc(C(=O)OC)cc1 (stereo partly drawn)	F
O=C(c1ccccc1)N1C(=O)[C@]2(Cc3ccccc31)N=C(c1ccc(OCCCO)cc1)O[C@@H]2c1ccccc1	T
COC(=O)[C@@]1(Cc2ccc(OC)cc2)[C@H]2c3cc(C(=O)N4CCCC4)n(CCc4c[nH]c5ccc(O)cc45)c3C[C@H]2CN1C(=O)c1ccccc1	F
O=C1C2C=CC(C(O)c3ccco3)N(Nc3ccccc3F)C2C(=O)N1c1ccccc1 (stereo not drawn)	F
COC(=O)C1(CC(C)C)C=C2C(=C(c3ccccc3)C(=O)C2C)CN1 (stereo not drawn)	F
CC(C)C(CO)N1C(=O)[C@@H]2C3C(=O)OCCC/C=C\[C@H]3OC23C=CCN(c2ccc4ccccc4c2)C(=O)[C@@H]13 (stereo partly drawn)	F
C[C@@H]1NC(=O)[C@@H](Cc2ccccc2)NC(=O)[C@@]23C(=O)N[C@@H](Cc4ccccc4)C2[C@H](C)[C@@]2(C)O[C@H]2C3/C=C/C/C=C\CNC1=O (stereo partly drawn)	T
Cc1ccc(F)cc1S(=O)(=O)N[C@@H]1CCN(Cc2ccc(Br)cc2)C1	T
CCCC[C@@H](O)C1=C(COC)C[C@H]2C(=O)N(Cc3ccccc3)C(=O)[C@H]2[C@H]1CO	T
COCCOC(=O)N1C(=O)[C@@]2(c3cc(C#CC4=CCCCC4)ccc31)[C@H](c1ccccc1OCCO)N1[C@H](c3ccccc3)[C@H](c3ccccc3)OC(=O)[C@H]1[C@@H]2C(=O)N1CCN(c2ncccn2)CC1	T
CC(C)(C)OC(=O)COc1cccc(C(=O)CCN2CCOCC2)c1	F
CCOC(=O)C[C@H]1[C@H](OC(=O)c2ccc(C(=O)c3ccccc3)cc2)[C@@H](NC(=O)c2ccc3ccccc3n2)c2cc(OCCCO)ccc2N1C(=O)Cc1ccc(OC)cc1	F
C=CCOC(=O)[C@@H]1[C@H]2C(=O)O[C@H](c3ccccc3)[C@H](c3ccccc3)N2[C@H](c2ccc(OCCOC(=O)[C@@H]3C[C@@H]4C(=O)N[C@@H](CCCC[N+](C)(C)C)C(=O)N4[C@@H]3c3ccc(O)cc3)cc2)[C@@]12C(=O)Nc1ccc(I)cc12	T
COc1ccc([Si](C)(C)[C@H]2[C@H](CC(=O)N(CCO)Cc3ccccc3)O[C@@]3(C(=O)N(C)c4c(Br)cc(C)cc43)[C@@H]2C)cc1	T
CCCC1(C(=O)OC)C=C2C(=C(C)C(=O)C2C)CN1 (stereo not drawn)	F
CCOC(=O)C[C@H]1[C@H](OC(=O)c2cc3ccccc3oc2=O)[C@@H](NC(=O)c2ccc3ccccc3n2)c2cc(OCCCO)ccc2N1C(=O)Cc1ccc(OC)cc1	T
CCOC(=O)C[C@H]1[C@H](OC(=O)c2ccc(-c3ccccc3)cc2)[C@@H](NC(=O)CC(C)C)c2cc(OCCCO)ccc2N1C(=O)c1ccc2ccccc2n1	F
COc1ccc([Si](C)(C)[C@@H]2[C@@H](CC(=O)N(CCO)Cc3ccccc3)O[C@]3(C(=O)N(Cc4cccc(N5CCCCC5=O)c4)c4ccccc43)[C@H]2C)cc1	T
C=CCNC(=O)[C@@H]1[C@H]2C(=O)O[C@H](c3ccccc3)[C@H](c3ccccc3)N2[C@H](c2ccc(OCCO)cc2)[C@@]12C(=O)N(C(=O)OCCOC)c1ccc(C#Cc3ccc(OC)cc3)cc12	T
COC(=O)C1=CC(CCCO)=CC(c2cccs2)N(Cc2cccc(OC(F)(F)F)c2)C=C1C(=O)OC (stereo not drawn)	F
CC(C)C[C@@H]1NC(=O)[C@@H]2C[C@H](C(=O)NCCCCCCN)[C@H](c3cccc(OCCO)c3)N2C1=O	T
CCCNC(=O)[C@@]1(C)c2ccccc2C(=O)N(c2ccc(C)cn2)[C@H]1c1ccc(CO)cc1	F
Cc1ccc(N2C(=O)c3ccccc3[C@@H](C(=O)NCCCN(C)C)[C@@H]2c2ccc(CO)cc2)nc1	F
[N-]=[N+]=Nc1ccccc1C[C@@]1(C(=O)N2CCOCC2)N=C(c2ccc(OCCCO)cc2)O[C@@H]1c1ccccc1	F

Data credit: PubChem BioAssay
